Source: ChEMBL document CHEMBL1201862

test.name: Luminescence Cell-Based Dose Confirmation HTS to Identify Activators of 5'UTR Stem-Loop Driven Alpha-Synuclein mRNA Translation in H4 Neuroglioblastoma Cells. [Related pubchem assays: 1829 (Project Summary), 1814 (Primary HTS)]
Format: functional
Calls of active or inactive are those of the source.
Field: EC50. Provide a value for each of the compounds that follow.

Known results for compounds:
- compound: "C=CCOc1c(Cl)cc(C(=S)N2CCCC2)cc1OCC"
  recorded.value: "> 120 µM (not active)"
- compound: "c1ccn2c(c1)nc1c2nc2ccccn21"
  recorded.value: "7.67 µM (active)"
- compound: "CCc1nnc(NC(=O)c2nc(S(=O)(=O)Cc3cccc(C)c3)ncc2Cl)s1"
  recorded.value: "> 120 µM (not active)"
- compound: "COc1cccc(N(C(=O)c2nc3nccc(C)n3n2)c2nc3ccccc3s2)c1"
  recorded.value: "0.122 µM (active)"
- compound: "O=C(C1CCCN(c2ncnc3c2nc2n3CCCCC2)C1)N1CCN(c2ccccc2)CC1 (configuration not stated)"
  recorded.value: "> 120 µM (not active)"

# batch: return EC50 for each of the 2 compounds below
1. CC1Cc2nc(SCC(=O)Nc3ccc4c(c3)OCO4)n(Cc3ccccc3)c(=O)c2S1 (configuration not stated)
2. Oc1nc(CN2CCN(C/C=C/c3ccccc3)CC2)nc2ccccc12

a:
["10.8 µM (active)", "> 120 µM (not active)"]

====

test.name: Luminescence Cell-Based Dose Confirmation HTS to Identify Inhibitors of Platelet Dense Granule Release. [Related pubchem assays: 1663 (Primary HTS), 1678 (Summary of Project)]
Type: functional
The source made the active and inactive calls.
experimental.endpoint: EC50

Known results for compounds:
- chemical.string: "COCCSc1ccccc1C(=O)Nc1ccc2c(c1)OCO2"
  recorded.value: "> 112 µM (not active)"
- chemical.string: "O=C(Nc1ccc(S(=O)(=O)NCc2ccco2)cc1)c1ccc(F)cc1"
  recorded.value: "> 112 µM (not active)"
- chemical.string: "CCOc1ccc2[nH]c(NCCO)nc2c1"
  recorded.value: "0.205 µM (active)"
- chemical.string: "O=C(N/C(=C/c1cccc(Br)c1)c1nc(S)n[nH]1)c1ccccc1"
  recorded.value: "> 112 µM (not active)"
- chemical.string: "Nc1nc(Cl)nc2c1ncn2[C@@H]1O[C@H](CO)[C@@H](O)[C@H]1O"
  recorded.value: "< 0.701 µM (active)"

q: Given O=C(Nc1ccccc1C(=O)N/N=C/c1ccco1)c1ccc(Cl)cc1 , state its recorded EC50.
a: 10.9 µM (active)

====

study.system: DNA dC->dU-editing enzyme APOBEC-3A (Homo sapiens)
Sequence (P31941 whole entry): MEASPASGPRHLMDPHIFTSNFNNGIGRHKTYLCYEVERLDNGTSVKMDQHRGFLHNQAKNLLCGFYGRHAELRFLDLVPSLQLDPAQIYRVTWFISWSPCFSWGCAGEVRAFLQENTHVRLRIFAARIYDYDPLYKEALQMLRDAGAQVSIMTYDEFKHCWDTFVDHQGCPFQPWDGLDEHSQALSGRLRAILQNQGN
test.name: Dose Response confirmation of small molecule APOBEC3A DNA Deaminase Inhibitors via a fluorescence-based single-stranded DNA deaminase assay. [Related pubchem assays (depositor defined):AID493011, AID493024]
Assay type: functional
Calls of active or inactive are those of the source.
Field: IC50. Provide a value for each of the compounds that follow.

Known results for compounds:
- compound: "O=C(CSc1nnnn1-c1ccccc1)N1CCc2ccccc21"
  IC50: "6.17 µM (active)"
- compound: "CCn1c(SCC(=O)NCc2ccccc2)nnc1C(CO)NC(=O)c1ccccc1 (stereo unspecified)"
  IC50: "3.67 µM (active)"
- compound: "CC(=O)c1ccc(S(=O)(=O)N2Cc3ccccc3CC2C(=O)O)cc1 (stereo unspecified)"
  IC50: "14 µM (active)"
- compound: "CN1CCN(c2ccc(Cl)cc2NC(=O)CC2OC(=O)c3ccccc32)CC1 (stereo unspecified)"
  IC50: "3.24 µM (active)"
- compound: "COC(=O)CCCCCCCCC(O)C[N+]1(C)CCOCC1 (stereo unspecified)"
  IC50: "2.36 µM (active)"

Please turn your attention to the following entry.
q: Given COc1ccc2[nH]c(O)c(N=O)c2c1 , state its recorded IC50.
a: 2.64 µM (active)

====

study.system: Paired box protein Pax-8 (Homo sapiens, UniProt Q06710)
Sequence (Q06710 whole entry): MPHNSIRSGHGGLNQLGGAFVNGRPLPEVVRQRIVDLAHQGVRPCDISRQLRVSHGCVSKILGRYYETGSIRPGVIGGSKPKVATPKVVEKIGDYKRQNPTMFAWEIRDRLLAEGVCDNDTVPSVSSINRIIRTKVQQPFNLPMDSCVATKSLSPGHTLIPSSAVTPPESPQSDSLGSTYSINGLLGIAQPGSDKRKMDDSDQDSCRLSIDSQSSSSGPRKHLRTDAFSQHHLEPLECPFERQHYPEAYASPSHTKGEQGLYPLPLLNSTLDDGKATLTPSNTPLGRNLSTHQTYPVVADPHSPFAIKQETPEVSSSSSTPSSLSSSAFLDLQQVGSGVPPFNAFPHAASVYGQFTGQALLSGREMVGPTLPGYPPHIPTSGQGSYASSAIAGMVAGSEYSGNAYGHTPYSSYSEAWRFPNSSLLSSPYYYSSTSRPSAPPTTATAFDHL
test.name: PAX8 transcriptional activity inhibition in RMG-I – RMG-I cells, luciferase, cherry-pick, dose response (AID 687027);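 also: luciferase reporter driven by Pax8 target thyroperoxidase promoter measured by SteadyGlo luminescence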
Assay type: functional, cell-based
Active and inactive are the calls of the source.
Field: AC50. Provide a value for each of the compounds that follow.

Known results for compounds:
- compound: "COc1ccc(-c2csc(NC(=O)c3ccccc3NS(=O)(=O)c3ccc(F)c(F)c3)n2)cc1"
  study.system: "Paired box protein Pax-8 (Homo sapiens, UniProt Q06710)"
  experimental.endpoint: "AC50"
  recorded.value: "2.64 µM (active)"
- compound: "C[C@@H]1CCCCO[C@@H](CN(C)Cc2ccc(C(F)(F)F)cc2)[C@H](C)CN([C@H](C)CO)C(=O)c2cc(NS(=O)(=O)c3cccs3)ccc2O1"
  study.system: "Paired box protein Pax-8 (Homo sapiens, UniProt Q06710)"
  experimental.endpoint: "AC50"
  recorded.value: "9.08 µM (active)"
- compound: "CCOc1ccc(NC(=O)Nc2cc(OCC(F)(F)F)cc(OCC(F)(F)F)c2)cc1"
  study.system: "Paired box protein Pax-8 (Homo sapiens, UniProt Q06710)"
  experimental.endpoint: "AC50"
  recorded.value: "8.08 µM (active)"

q: Reported AC50 for Paired box protein Pax-8 (Homo sapiens, UniProt Q06710), given COc1ccc(C(C(=O)NC2CCCCC2)N(C(=O)CCl)c2ccc(C)cc2)cc1 (centres undefined) ?
a: 0.533 µM (active)

====

Recorded below: AC50, system Cytochrome P450 2C9 (Homo sapiens).

Known results for compounds:
- compound: "Sc1nnc(-c2ccncc2)n1CC1CCCO1 (stereo not drawn)"
  study.system: "Cytochrome P450 2C9 (Homo sapiens)"
  recorded.value: "28.2 µM (inconclusive)"
- compound: "O=C(NNC(=O)c1ccc2c(c1)C(=O)N(C1CCCCC1)C2=O)c1cccnc1"
  study.system: "Cytochrome P450 2C9 (Homo sapiens)"
  recorded.value: "15.8 µM (inconclusive)"
- compound: "NCCSCc1ccccc1Cl"
  study.system: "Cytochrome P450 2C9 (Homo sapiens)"
  recorded.value: "3.98 µM (inconclusive)"
- compound: "O=C(c1ccccc1NS(=O)(=O)c1cccc([N+](=O)[O-])c1)N1CCOCC1"
  study.system: "Cytochrome P450 2C9 (Homo sapiens)"
  recorded.value: "7.94 µM (inconclusive)"

# batch: return AC50 for each of the 7 compounds below
1. O=C(O)CSc1cc(-c2ccccc2)nc2ccccc12
2. Cc1ccc(C2C(/C=N/c3c(C)n(C)n(-c4ccccc4)c3=O)=C(c3ccccc3)Oc3ccccc32)cc1 (stereo not drawn)
3. Cc1cccc(C)c1NC(=O)CN1CCN(CCCC(c2ccc(F)cc2)c2ccc(F)cc2)CC1 [LIDOFLAZINE]
4. COc1ccc(Oc2ncc3nc(-c4ccc(Cl)cc4)c(=O)n(CCC#N)c3n2)cc1
5. Cc1nc2cnc(Oc3ccccc3)nc2n(-c2ccccc2)c1=O
6. CCCCn1c(SCC(=O)Nc2nccs2)nc2ccccc2c1=O
7. COc1ccc(/C=N/C(CO)C(O)c2ccc([N+](=O)[O-])cc2)cc1 (stereo not drawn)

a:
1: 3.16 µM (inconclusive); 2: 2.24 µM (inconclusive); 3: 15.8 µM (inconclusive); 4: 7.94 µM (inconclusive); 5: 25.1 µM (inconclusive); 6: 0.398 µM (inconclusive); 7: 2.51 µM (inconclusive)

# batch: return AC50 for each of the 8 compounds below
1. Cc1ccc2c(c1)[C@@H]1CN(C)CC[C@@H]1N2S(=O)(=O)c1ccc(F)cc1
2. COc1ccc2nc(C)cc(SCC(=O)NNC(=O)COc3ccc(C)cc3)c2c1
3. Cn1cc(/C=N/n2cnc3sc4c(c3c2=O)CCCC4)c2ccccc21
4. c1csc(CNc2nc(-c3ccc4c(c3)OCO4)nc3ccccc23)c1
5. CCc1ccc2[nH]c(O)c(N=Nc3nc(-c4ccccc4)cs3)c2c1
6. O=C(c1ccc(Cl)cc1)N1CCN(c2cc(O)nnc2-c2ccccc2)CC1
7. Nc1nn2c(O)c3c(nc2c1N=Nc1ccccc1)CCCC3
8. C=CCN(CC=C)C(=S)NC(=O)c1ccc(OC)c(Br)c1

a:
1: 0.00562 µM (inconclusive); 2: 1.78 µM (inconclusive); 3: 39.8 µM (inconclusive); 4: 1.58 µM (inconclusive); 5: 39.8 µM (inconclusive); 6: 0.355 µM (inconclusive); 7: 8.91 µM (inconclusive); 8: 15.8 µM (inconclusive)

# batch: return AC50 for each of the 4 compounds below
1. Cc1ccc(/C=C/C(=O)NC(=S)Nc2ccccc2C(=O)NC2CCCCC2)cc1
2. CCn1c(S)nnc1-c1ccoc1C
3. N#CCCn1c(=O)c(-c2ccccc2)nc2cnc(Oc3cccc(Cl)c3)nc21
4. COC(=O)[C@@]1(Cc2ccc(OC)cc2)[C@@H]2C(=CC(=O)[C@H]2CC(=O)C(=O)N(C)C)CN1C(=O)c1ccccc1

a:
1. 7.08 µM (inconclusive)
2. 31.6 µM (inconclusive)
3. 7.94 µM (inconclusive)
4. 25.1 µM (inconclusive)
